For each entry below, report its mean nematode size ln(EXT) (ln) value.
system: Caenorhabditis elegans N2; test: mean nematode size ln(EXT) after 48 h, plate-adjusted (DMSO control set to 6) (ln(EXT), control-adjusted); higher = larger nematodes / less growth inhibition; settings: 5 µM; exposure time 48 h
Answer with a number only.

INPUT: Return reported mean nematode size ln(EXT) (ln); argument: CCCCCCCCCCCCOS(=O)(=O)[O-].[Na+] [Sodium dodecyl sulfate]
OUTPUT: 5.75

INPUT: Return reported mean nematode size ln(EXT) (ln); argument: O=C(Nc1ccc(Cl)cc1)Nc1ccc(Cl)c(Cl)c1 [3,4,4'-Trichlorocarbanilide]
OUTPUT: 4.28

INPUT: Return reported mean nematode size ln(EXT) (ln); argument: O=C(O)C1(c2ccc3c(c2)OC[C@H](Cc2ccc(-c4ccccc4)cc2)[C@H]3O)CCCC1
OUTPUT: 5.77

INPUT: Return reported mean nematode size ln(EXT) (ln); argument: CN1CCN(Cc2cc(-c3ccc4[nH]c(=O)oc4c3)co2)[C@@H](c2ccc(F)cc2)C1
OUTPUT: 5.75

INPUT: Return reported mean nematode size ln(EXT) (ln); argument: CCCCC(CC)COC(=O)c1ccccc1C(=O)O (centres undefined)
OUTPUT: 5.77

INPUT: Return reported mean nematode size ln(EXT) (ln); argument: Oc1ccccc1-c1ccccc1
OUTPUT: 5.68

INPUT: Return reported mean nematode size ln(EXT) (ln); argument: CC(COc1ccc(Oc2ccccc2)cc1)Oc1ccccn1 (centres undefined)
OUTPUT: 5.14

INPUT: Return reported mean nematode size ln(EXT) (ln); argument: NC1CCCCC1
OUTPUT: 5.82

INPUT: Return reported mean nematode size ln(EXT) (ln); argument: COc1ccc(C(c2ccc(OC)cc2)C(Cl)(Cl)Cl)cc1
OUTPUT: 5.58
